MEASUREMENT TARGET: Tyrosine-protein phosphatase non-receptor type 1 (Homo sapiens)

[
  {
    "SMILES ENTRY": "CC(C)CCN[C@H]1CCc2cc(O)c(N3CC(=O)NS3(=O)=O)c(F)c2C1",
    "READOUT UNITS": "nM",
    "IC50": 10
  }
]

----------
MEASUREMENT TARGET: Tyrosine-protein phosphatase non-receptor type 2 (Homo sapiens)
METRIC NAME: IC50

[
  {
    "SMILES ENTRY": "NC(=O)c1cc2cc(Br)c(C(F)(F)P(=O)(O)O)cc2s1",
    "EXPERIMENTAL VALUE": "0.28 µM"
  },
  {
    "SMILES ENTRY": "O=P(O)(O)C(F)(F)c1cc2sc(CO)cc2cc1Br",
    "EXPERIMENTAL VALUE": "1.5 µM"
  }
]

----------
The following compounds are shown together with reported pKi values.
MEASUREMENT TARGET: UniProtKB P18031
pKi: −log10 of the molar value.

[
  {
    "COMPOUND": "CC(C)C[C@@H]1NC(=O)[C@H](Cc2ccc(OC(F)(C(=O)O)C(=O)O)cc2)NC(=O)[C@H](CCC(=O)O)NC(=O)[C@H](CC(=O)O)NC(=O)[C@H](C)NC(=O)[C@H](CC(=O)O)NC(=O)SC[C@H](C(N)=O)NC1=O",
    "pKi": 6.77
  },
  {
    "COMPOUND": "CCc1ccc(C(=O)NCCCC[C@H](NC(=O)[C@H](Cc2ccc(C(F)(F)P(=O)(O)O)cc2)NC(=O)[C@@H](CC(=O)COC2CC(C)CCC2C(C)C)Cc2ccccc2)C(N)=O)cc1 (stereo partly drawn)",
    "pKi": 7.47
  },
  {
    "COMPOUND": "O=C(O)COc1c(C(=O)O)sc(-c2cccc(N(C(=O)c3ccccc3)C3CCCCC3)c2)c1Br",
    "pKi": 7.80
  }
]

----------
pIC50: −log10 of the molar value.
pIC50 tested on Tyrosine-protein phosphatase non-receptor type 1 (Homo sapiens, UniProt P18031): recorded values
Sequence (P18031 whole entry): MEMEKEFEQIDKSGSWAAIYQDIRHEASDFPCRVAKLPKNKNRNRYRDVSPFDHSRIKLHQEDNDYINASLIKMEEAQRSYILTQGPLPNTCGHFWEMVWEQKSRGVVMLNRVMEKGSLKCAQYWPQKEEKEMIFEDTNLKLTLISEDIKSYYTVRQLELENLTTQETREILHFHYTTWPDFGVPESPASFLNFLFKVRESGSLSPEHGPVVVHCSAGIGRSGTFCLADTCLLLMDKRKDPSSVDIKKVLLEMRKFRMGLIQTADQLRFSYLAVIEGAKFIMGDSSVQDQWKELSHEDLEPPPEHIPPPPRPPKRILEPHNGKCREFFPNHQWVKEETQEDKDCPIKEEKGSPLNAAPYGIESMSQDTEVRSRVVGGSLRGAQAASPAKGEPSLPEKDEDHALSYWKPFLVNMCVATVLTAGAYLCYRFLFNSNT

[
  {
    "SMILES ENTRY": "COc1ccc2cc(O)c(N3CC(=O)NS3(=O)=O)c(F)c2c1",
    "MEASUREMENT TARGET": "Tyrosine-protein phosphatase non-receptor type 1 (Homo sapiens, UniProt P18031)",
    "LIMIT QUALIFIER": "=",
    "pIC50": 9.00
  },
  {
    "SMILES ENTRY": "CC(C)CCNc1ccc2cc(O)c(N3CC(=O)NS3(=O)=O)c(F)c2c1",
    "MEASUREMENT TARGET": "Tyrosine-protein phosphatase non-receptor type 1 (Homo sapiens, UniProt P18031)",
    "LIMIT QUALIFIER": ">",
    "pIC50": 9.00
  },
  {
    "SMILES ENTRY": "CC(C)CCOc1ccc2cc(O)c(N3CC(=O)NS3(=O)=O)c(F)c2c1",
    "MEASUREMENT TARGET": "Tyrosine-protein phosphatase non-receptor type 1 (Homo sapiens, UniProt P18031)",
    "LIMIT QUALIFIER": "=",
    "pIC50": 9.20
  }
]

----------
The following compounds are shown together with reported IC50 values.
Target protein (sequence): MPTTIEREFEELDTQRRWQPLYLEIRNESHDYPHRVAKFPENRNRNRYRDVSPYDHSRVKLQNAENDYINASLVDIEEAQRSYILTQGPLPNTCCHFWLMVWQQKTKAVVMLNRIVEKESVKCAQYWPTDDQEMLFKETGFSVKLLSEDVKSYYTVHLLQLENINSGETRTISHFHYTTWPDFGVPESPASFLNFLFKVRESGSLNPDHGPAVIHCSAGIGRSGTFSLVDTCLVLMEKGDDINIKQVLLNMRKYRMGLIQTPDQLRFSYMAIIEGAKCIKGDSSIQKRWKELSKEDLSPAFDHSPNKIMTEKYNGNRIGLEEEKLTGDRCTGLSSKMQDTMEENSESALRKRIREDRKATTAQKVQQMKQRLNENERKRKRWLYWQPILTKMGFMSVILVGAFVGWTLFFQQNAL

[
  {
    "SMILES ENTRY": "CC(C)CCOc1ccc2cc(O)c(N3CC(=O)NS3(=O)=O)c(F)c2c1",
    "IC50 [nM]": 0.58
  },
  {
    "SMILES ENTRY": "CC(C)CCNc1ccc2cc(O)c(N3CC(=O)NS3(=O)=O)c(F)c2c1",
    "IC50 [nM]": 1
  },
  {
    "SMILES ENTRY": "CC(C)(O)CCOc1ccc2cc(O)c(N3CC(=O)NS3(=O)=O)c(F)c2c1",
    "IC50 [nM]": 0.6
  },
  {
    "SMILES ENTRY": "COc1ccc2cc(O)c(N3CC(=O)NS3(=O)=O)c(F)c2c1",
    "IC50 [nM]": 1
  }
]

----------
MEASUREMENT TARGET: Tyrosine-protein phosphatase non-receptor type 2 (Homo sapiens)
pIC50: −log10 of the molar value.
METRIC NAME: pIC50

[
  {
    "COMPOUND": "CCc1ccc(C(=O)NCCCC[C@H](NC(=O)[C@H](Cc2ccc(C(F)(F)P(=O)(O)O)cc2)NC(=O)[C@@H](CC(=O)COC2CC(C)CCC2C(C)C)Cc2ccccc2)C(N)=O)cc1 (stereo partly specified)",
    "EXPERIMENTAL VALUE": 8.04
  }
]

----------
MEASUREMENT TARGET: Protein cereblon/Tyrosine-protein phosphatase non-receptor type 2 (Homo sapiens, UniProt P17706+Q96SW2)
Sequence (Q96SW2 whole entry, one chain of several): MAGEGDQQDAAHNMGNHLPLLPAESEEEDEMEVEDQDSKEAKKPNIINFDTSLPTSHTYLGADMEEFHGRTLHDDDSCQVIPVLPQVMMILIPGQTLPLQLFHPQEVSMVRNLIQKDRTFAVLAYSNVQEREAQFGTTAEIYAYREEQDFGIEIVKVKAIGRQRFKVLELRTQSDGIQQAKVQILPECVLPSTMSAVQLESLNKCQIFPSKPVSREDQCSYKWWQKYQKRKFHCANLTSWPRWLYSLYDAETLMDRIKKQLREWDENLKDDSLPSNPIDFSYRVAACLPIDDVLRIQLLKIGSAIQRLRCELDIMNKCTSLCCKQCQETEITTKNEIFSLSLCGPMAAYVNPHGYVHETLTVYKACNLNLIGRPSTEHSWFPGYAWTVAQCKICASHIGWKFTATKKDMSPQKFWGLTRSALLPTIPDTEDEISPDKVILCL
CONDITION SET: hek293t
Description: PROTAC activity at PTPN2/CRBN in HEK293T cells assessed as protein degradation measured for 48 hrs by Western blot analysis
*1 amine or outer side, *2 acyl side, *3 side chain or, on linkers, in order; H or OH if unused. Where a SMILES comes first, the peptide text is derived from it. [ ]: non-standard residue; d: D form. The star is where a group is joined. NHCH2(1,3-C6H4)CH2CO = O=C(Cc1cccc(CN[*:1])c1)[*:2]; F2Pmp = N[C@@H](Cc1ccc(C(F)(F)P(=O)(O)O)cc1)C(=O)O; Phenylacetyl(4-OH,3-OMe) = COc1cc(CC(=O)*)ccc1O; Benzoyl(3-Br,4-Me) = Cc1ccc(C(=O)*)cc1Br; X1 = Cc1ncsc1-c1ccc([C@H](C)N*)cc1; Hyp = O=C(O)[C@@H]1C[C@@H](O)CN1; Tle = CC(C)(C)[C@H](N)C(=O)O
The following compounds are shown together with reported log10 DC50 values.
METRIC NAME: log10 DC50 (log10 of the value in nM)

[
  {
    "COMPOUND": "COc1cc(CC(=O)N[C@@H](Cc2ccccc2)C(=O)N[C@@H](Cc2ccc(C(F)(F)P(=O)(O)O)cc2)C(=O)N[C@@H](CCCCNC(=O)c2ccc(C)c(Br)c2)C(=O)NCc2cccc(CC(=O)N[C@H](C(=O)N3C[C@H](O)C[C@H]3C(=O)N[C@@H](C)c3ccc(-c4scnc4C)cc3)C(C)(C)C)c2)ccc1O ({Phenylacetyl(4-OH,3-OMe)}-F[F2Pmp]K(Benzoyl(3-Br,4-Me))[NHCH2(1,3-C6H4)CH2CO][Tle][Hyp]-X1)",
    "METRIC NAME": "log10 DC50",
    "EXPERIMENTAL VALUE": 0.68
  },
  {
    "COMPOUND": "Cc1ncsc1-c1ccc([C@H](C)NC(=O)[C@@H]2C[C@@H](O)CN2C(=O)[C@@H](NC(=O)CCCCCCNC(=O)Cn2cc(-c3ccc4cc(O)c(N5CC(=O)NS5(=O)=O)c(F)c4c3)cn2)C(C)(C)C)cc1",
    "METRIC NAME": "log10 DC50",
    "EXPERIMENTAL VALUE": 1.97
  },
  {
    "COMPOUND": "Cc1ncsc1-c1ccc([C@H](C)NC(=O)[C@@H]2C[C@@H](O)CN2C(=O)[C@@H](NC(=O)CCCCCCCCCCNC(=O)Cn2cc(-c3ccc4cc(O)c(N5CC(=O)NS5(=O)=O)c(F)c4c3)cn2)C(C)(C)C)cc1",
    "METRIC NAME": "log10 DC50",
    "EXPERIMENTAL VALUE": 2.76
  },
  {
    "COMPOUND": "Cn1c(=O)n(C2CCC(=O)NC2=O)c2cccc(C3CCN(C(=O)c4ccc5c(F)c(N6CC(=O)NS6(=O)=O)c(O)cc5c4)CC3)c21 (stereo not given)",
    "METRIC NAME": "log10 DC50",
    "EXPERIMENTAL VALUE": 1.00
  },
  {
    "COMPOUND": "Cc1ncsc1-c1ccc([C@H](C)NC(=O)[C@@H]2C[C@@H](O)CN2C(=O)[C@@H](NC(=O)CCCCCNC(=O)Cn2cc(-c3ccc4cc(O)c(N5CC(=O)NS5(=O)=O)c(F)c4c3)cn2)C(C)(C)C)cc1",
    "METRIC NAME": "log10 DC50",
    "EXPERIMENTAL VALUE": 2.34
  },
  {
    "COMPOUND": "Cc1ncsc1-c1ccc([C@H](C)NC(=O)[C@@H]2C[C@@H](O)CN2C(=O)[C@@H](NC(=O)CCCCCCCNC(=O)Cn2cc(-c3ccc4cc(O)c(N5CC(=O)NS5(=O)=O)c(F)c4c3)cn2)C(C)(C)C)cc1",
    "METRIC NAME": "log10 DC50",
    "EXPERIMENTAL VALUE": 1.89
  }
]

Hello, the source for this data is ChEMBL document CHEMBL6121069, in case you need it.
